src = patent US12384808B2

# Target: TNFα (Homo sapiens)
# Sequence (P01375 77-233 limits assumed): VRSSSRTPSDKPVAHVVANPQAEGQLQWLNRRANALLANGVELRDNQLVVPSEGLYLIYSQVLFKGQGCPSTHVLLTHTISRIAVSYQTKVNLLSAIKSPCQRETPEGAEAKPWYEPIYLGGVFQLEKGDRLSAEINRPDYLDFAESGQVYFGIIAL
# Method: TNFα Induced HEK Blue Cellular Assay
# Type: cell-based
# Conditions used: HEK Blue TNFα reporter cells, TNFα 100 pg/ml, 24 hrs at 37° C., secreted alkaline phosphatase (QUANTI-Blue) read at 620 nm; read-out: IC50 value
Observable: IC50

Here's what some known entries look like.
Compound structure: CN1C(=O)c2cccc(OC(F)F)c2[C@H]2C[C@@H]1c1nc3ccc(-c4ccc(NCP(C)(C)=O)nc4)cc3n12
IC50: < 100 nM

Compound structure: [2H]C([2H])([2H])N1C(=O)c2cccc(OC(F)F)c2[C@H]2C[C@@H]1c1nc3ccc(-c4cc(F)c(P(C)(C)=O)c(C)n4)cc3n12
IC50: 100 to 1000 nM

Please report the recorded IC50 for `[2H]C([2H])([2H])N1C(=O)c2cccc(OC(F)F)c2[C@H]2C[C@@H]1c1nc3ccc(-c4cc(F)c(CP(C)(C)=O)c(F)c4)cc3n12` . < 100 nM
